- Test system: Vero E6
- assaySummary: drug sensitivity score (DSS) for viability; higher = more toxic; extreme values may be limits of the assay
- appliedConditions: 72 h
reportedProperty: drug sensitivity score

Here are 3 compounds together with their reported answers.
CC1(C)Cc2c(-c3ccccc3)c(-c3ccc(Cl)cc3)c(CC(=O)O)n2C1: 0
CC[C@@]1(O)C(=O)OCc2c1cc1n(c2=O)Cc2cc3ccccc3nc2-1: 15.9
Cn1c(-c2ccccc2)nnc1S(C)(=O)=O: 0

Give me drug sensitivity score for each of these compounds, listed below.
1. C1CCC2(CC1)CCNCC2 [4,4-pentamethylenepiperidine]
2. Nc1cc(C(F)(F)F)c(-c2cc(N3CCOCC3)nc(N3CCOCC3)n2)cn1
3. O=[N+]([O-])c1ccccc1S(=O)(=O)NCC1CCC(CNC[C@H]2CCc3ccccc3C2)CC1 (stereo partly drawn)
4. CO[C@@]1(NC(=O)CSC[C@@H](N)C(=O)O)C(=O)N2C(C(=O)O)=C(CSc3nnnn3C)CS[C@@H]21
5. CC[C@H](CC[C@@H](C)[C@H]1CC[C@H]2[C@@H]3CC=C4C[C@@H](O)CC[C@]4(C)[C@H]3CC[C@]12C)C(C)C

**A:**
1. 0
2. 8.4
3. 0.9
4. 0
5. 0

* * *

- Test system: HepG2
- assaySummary: cell viability relative to DMSO; higher = less toxic
- appliedConditions: 72 h; 100 nM
reportedProperty: cell viability (%)
Numbers only, in %.

Here are 8 molecules together with their reported answers.
Cc1ccc(C)c([C@H](O)CNC(C)C)c1 [benzenemethanol,-2,5-dimethyl-[[(1-methylethyl)amino]methyl]]: 101
CN(Cc1cnc2nc(N)nc(N)c2n1)c1ccc(C(=O)N[C@@H](CCC(=O)O)C(=O)O)cc1 [methotrexate]: 105
C=CCNC(=O)c1cc([N+](=O)[O-])cc2c(=O)[nH]c(Nc3ccc(Cl)c(Cl)c3)nc12: 100
O=c1c(O)c(-c2ccc(O)cc2O)oc2cc(O)cc(O)c12: 98.9
C[C@H]1COc2c(C3(N)CC3)c(F)cc3c(=O)c(C(=O)O)cn1c23: 101
N=C(N)c1ccc(N2CCN(C3CCN(CC(=O)O)CC3)CC2)cc1: 101
Cc1nnc(-c2ccc3occ(-c4ccc([S+](C)[O-])cc4)c3c2)o1 (configuration not stated): 99.3
O=c1[nH]c(=O)c2ccccc2o1: 103

Give me cell viability for each of these molecules, listed below.
1. CCc1nc2c(C)nc(C)cc2n1-c1ccc(CCNC(=O)NS(=O)(=O)c2ccc(C)cc2)cc1
2. N#CC(c1ccccc1)(c1ccccc1)c1ccccc1Cl
3. CCC(CC)(NC(=O)C(C)C)C(=O)N[C@@H](CCCNC(=N)N)C(=O)NC1(C(=O)NC(c2ccc(F)cc2)c2ccc(F)cc2)CCCC1
4. CCCCNc1c(C(=O)OCC)c(C)nc2c1cnn2CC [tracazolate]
5. CCOC(=O)c1ccccc1OC(N)=O [ethyl-2-(carbamoyloxy)benzoate]

**A:**
1: 104; 2: 93.7; 3: 98.4; 4: 92.5; 5: 94.2

Give me cell viability for each of these molecules, listed below.
1. CC[N+](CC)(CC)CCOc1cccc(OCC[N+](CC)(CC)CC)c1OCC[N+](CC)(CC)CC [gallamine-triethiodide]
2. CO[C@@]1(NC(=O)CSC[C@@H](N)C(=O)O)C(=O)N2C(C(=O)O)=C(CSc3nnnn3C)CS[C@@H]21
3. CCCC(=O)O[C@]1(C(=O)COC(C)=O)CC[C@H]2[C@@H]3C[C@H](F)C4=CC(=O)C=C[C@]4(C)[C@@]3(F)[C@@H](O)C[C@@]21C [difluprednate]
4. Cn1c(-c2ccccc2)nnc1S(C)(=O)=O

**A:**
94
96.6
107
99.1
